Ref: PubChem BioAssay (NCI)

- Test system: SK-MEL-2 melanoma
- ASSAY_METHOD_TEXT: NCI tumour cell line growth inhibition, 48 h; in the data active = GI50 below about 0.43 µM; inactive = the rest
Outcomes you can answer with include only these: Yes for active, No for inactive

Some entries whose results are on file:
{"CHEMICAL_STRING": "O=C(OC[C@@H]1CO1)c1cccc2c(=O)c3ccccc3[nH]c12", "CLASSIFICATION": "Yes"}
{"CHEMICAL_STRING": "CNCc1ccc(-c2[nH]c3cc(F)cc4c3c2CCNC4=O)cc1", "CLASSIFICATION": "No"}
{"CHEMICAL_STRING": "CCN(CC)CCNc1ccc([N+](=O)[O-])c2sc3cc(Cl)ccc3c(=O)c12", "CLASSIFICATION": "No"}
{"CHEMICAL_STRING": "CCCCC[C@@H](C/C=C/CCC(=O)NC/C(=C/Cl)[C@H]1C(=O)C(C)(C)C(=O)[C@@H](C)[C@@]1(C)O)OC", "CLASSIFICATION": "No"}

Here's the next entry for you.
// return assay outcome for `C=CCN=C(N/N=C/c1ccc([N+](=O)[O-])o1)NS(=O)(=O)c1cc(C(=O)Nc2ccccc2)c(Cl)cc1SCC(N)=O`
No

====

- Test system: SN12C renal
- ASSAY_METHOD_TEXT: NCI tumour cell line growth inhibition, 48 h
OUTCOME_MEASURE: GI50

Please indicate recorded GI50 of CCCCCCCCCCCCOC1C(C(CC(=O)N2CCN(Cc3ccc4c(c3)OCO4)CC2)NS(=O)(=O)c2cc(Cl)cc(Cl)c2)OC2OC(C)(C)OC21 (configuration not stated) measured with SN12C renal.
15.6 µM

Please indicate recorded GI50 of `O=C(C(=O)c1cc(Br)ccc1O)c1cc(Br)ccc1O` measured with SN12C renal.
3.47 µM

Please indicate recorded GI50 of `O=C(N/N=C/c1ccc(F)cc1)c1ccc(C(F)(F)F)nc1Nc1cccc(C(F)(F)F)c1` measured with SN12C renal.
1.63 µM

Please indicate recorded GI50 of `C=C(Cn1c2ccccc2c(=O)c2ccccc21)c1ccc(C(=O)Nc2ccccc2N)cc1` measured with SN12C renal.
> 100 µM

Please indicate recorded GI50 of `CCN(CC)CCNc1ccc([N+](=O)[O-])c2sc3cc(Cl)ccc3c(=O)c12` measured with SN12C renal.
2.05 µM

Please indicate recorded GI50 of `CC(=O)[O-].[Mn+3].[O-]c1ccc(Cl)cc1C=NCCN=Cc1cc(Cl)ccc1[O-]` measured with SN12C renal.
> 100 µM

Please indicate recorded GI50 of C#Cc1cccc(NC(=O)C2CCCN(C(=O)CCl)C2)c1 (configuration not stated) measured with SN12C renal.
19.7 µM

Please indicate recorded GI50 of COc1c(O)c2c3c(c1OC)-c1ccccc1CC3N(S(=O)(=O)c1ccc(C)cc1)CC2 (configuration not stated) measured with SN12C renal.
2.59 µM

Please indicate recorded GI50 of `C#CC#CC#CC#CC#CC#CC#CC#CC[C@@H]1OC[C@@H](COC(=O)O[C@@H](C(=O)O[C@H]2C[C@@]3(O)[C@@H](OC(=O)c4ccccc4)[C@@H]4[C@]5(OC(C)=O)CO[C@@H]5C[C@H](O)[C@@]4(C)C(=O)[C@H](OC(C)=O)C(=C2C)C3(C)C)[C@@H](NC(=O)c2ccccc2)c2ccccc2)O1` measured with SN12C renal.
1.03 µM

Please indicate recorded GI50 of C=C1CC/C=C(\C)CC[C@H](C(=C)C)[C@@H](O)/C=C(/CO)CCC1O (some centres not stated) measured with SN12C renal.
> 100 µM

Please indicate recorded GI50 of `N#CCC1(n2cc(-c3ncnc4[nH]ccc34)cn2)CN(C2CCN(C(=O)c3ccnc(C(F)(F)F)c3F)CC2)C1` measured with SN12C renal.
69.8 µM

Please indicate recorded GI50 of `Fc1ccc(-c2nn3c(COc4ccc(Cl)cc4)nnc3s2)cc1Oc1ccccc1` measured with SN12C renal.
> 46.1 µM

Please indicate recorded GI50 of c1cncc(C2ONC3=NCCN32)c1 (configuration not stated) measured with SN12C renal.
14.6 µM

Please indicate recorded GI50 of `N#CC(NC(=O)CCl)=C(Cl)Cl` measured with SN12C renal.
1.73 µM

Please indicate recorded GI50 of `COc1ccc(/C=C\c2cc(OC)c(OC)c(OC)c2)c(NS(=O)(=O)c2ccc(C(C)(C)C)cc2)c1O` measured with SN12C renal.
0.618 µM

Please indicate recorded GI50 of `O=C(/C=C(\[O-])c1ccccc1)CCCCCCC(=O)/C=C(\[O-])c1ccccc1.O=C(/C=C(\[O-])c1ccccc1)CCCCCCC(=O)/C=C(\[O-])c1ccccc1.O=C(/C=C(\[O-])c1ccccc1)CCCCCCC(=O)/C=C(\[O-])c1ccccc1.[Nd+3].[Nd+3]` measured with SN12C renal.
> 50 µM

Please indicate recorded GI50 of `CCCCC[C@@H](C/C=C/CCC(=O)NC/C(=C/Cl)[C@H]1C(=O)C(C)(C)C(=O)[C@@H](C)[C@@]1(C)O)OC` measured with SN12C renal.
17.3 µM
